// data source = PubChem BioAssay (NCI)

System: A549/ATCC NSCLC
Test: NCI-60 one-dose screen, 48 h
Conditions: 10 µM unless noted
This is part of a sample that, as a whole, favours compounds with a hit. Of some 83,000 tested, about 20% had one in any assay. Active and inactive are the calls of the source. The calls were made as follows: active = growth percent below 10; inactive = the rest.
Outcomes: label 1 = active, label 0 = inactive

{"COMPOUND": "COc1ccc([C@@H]2c3[nH]c4ccccc4c3CC3C(=O)N(C4CCN(Cc5c(F)cccc5F)CC4)CC(=O)N32)c(OC)c1 (stereo partly specified)", "CLASS ASSIGNMENT": "label 0"}
{"COMPOUND": "COc1ccc(NC2=C(Cl)C(=O)C(C)=C(C)C2=O)cc1OC", "CLASS ASSIGNMENT": "label 0"}
{"COMPOUND": "CN(C)c1ccc(/C=c2\\sc3nc4ccccc4n3c2=O)cc1", "CLASS ASSIGNMENT": "label 0"}
{"COMPOUND": "O=C(CSc1nc2sc3c(c2c(=O)n1-c1ccc(Cl)cc1)CCCC3)N/N=C/c1ccc(F)cc1", "CLASS ASSIGNMENT": "label 0"}
{"COMPOUND": "CSCCC(C(=O)O)N1C(=O)/C(=C/c2ccc(O)c(O)c2)SC1=S (stereo unspecified)", "CLASS ASSIGNMENT": "label 0"}
{"COMPOUND": "Cc1ccc(/C=C/c2nn3c(-c4ccco4)nnc3s2)cc1C", "CLASS ASSIGNMENT": "label 0"}
{"COMPOUND": "CN(C)CCCNc1c2ccc(Cl)cc2nc2c1oc1ccc(Cl)cc12", "CLASS ASSIGNMENT": "label 1"}
{"COMPOUND": "O=C1c2c(c3c4cc(Br)ccc4[nH]c3c3ccc4ccccc4c23)C(=O)N1CCO", "CLASS ASSIGNMENT": "label 0"}
{"COMPOUND": "C#Cc1nc(C2=C(C)C(O)CC2)cs1 (stereo unspecified)", "CLASS ASSIGNMENT": "label 0"}
{"COMPOUND": "Clc1ccc2c(NCCCn3ccnc3)c3oc4ccccc4c3nc2c1", "CLASS ASSIGNMENT": "label 0"}
{"COMPOUND": "N[C@@H](Cc1cn(-c2ccnc3ccccc23)nn1)C(=O)O", "CLASS ASSIGNMENT": "label 0"}
{"COMPOUND": "CCOC(=O)c1csc(NC(=O)CSc2nc3sc4c(c3c(=O)n2-c2ccc(Cl)cc2)CCCC4)n1", "CLASS ASSIGNMENT": "label 0"}
{"COMPOUND": "CCOC(=O)c1sc(N)c(C(=O)OCC)c1C", "CLASS ASSIGNMENT": "label 0"}
{"COMPOUND": "O=C(N/N=C/c1cccs1)c1[nH]c2ccc(Br)cc2c1-c1ccccc1", "CLASS ASSIGNMENT": "label 0"}
{"COMPOUND": "CCCC(=O)NC(c1cccc(N(C)C)c1)c1cc(C)c2cccnc2c1O (stereo unspecified)", "CLASS ASSIGNMENT": "label 0"}
{"COMPOUND": "CCCCCCNC(=O)Oc1ccc(/C(=C(/C)c2ccccc2)c2ccc(OCCN3CCCCCC3)cc2)cc1", "CLASS ASSIGNMENT": "label 0"}
{"COMPOUND": "C#Cc1nc(C2=C(C)C(=N\\O)/C(=N/O)C2)cs1", "CLASS ASSIGNMENT": "label 0"}
{"COMPOUND": "O=C1Nc2ccc(Cl)cc2/C1=C/c1ccc(OCC(=O)c2ccc(Br)cc2)cc1", "CLASS ASSIGNMENT": "label 0"}
{"COMPOUND": "CN(C)CCCOc1c2ccc(Cl)cc2nc2c1oc1ccc(Cl)cc12", "CLASS ASSIGNMENT": "label 1"}
{"COMPOUND": "O=[N+]([O-])c1ccc(O)c2ncccc12", "CLASS ASSIGNMENT": "label 0"}
{"COMPOUND": "C[C@@H]1CN(c2ccc3ncc(C#Cc4cncc(C(=O)Nc5ccc(CN6CCN(C)CC6)c(C(F)(F)F)c5)c4)n3n2)C[C@H](C)O1", "CLASS ASSIGNMENT": "label 1"}
